Measured Herbicidal Efficacy EE = Green foxtail, listed per entry.
Tested on: green foxtail
Experiment: Upland pre-emergence treatment test, green foxtail; further: ranges in brackets are in %
Assay type: in vivo, green foxtail (Setaria viridis)
Details: pre-emergence soil surface spray, 80 g/ha, 20th day after treatment, greenhouse

compound	Herbicidal Efficacy EE = Green foxtail
CCS(=O)(=O)Oc1c(C(=O)c2ccc3c(c2C)C(C)(C)CS3(=O)=O)cnn1C	5 (0)
CCCS(=O)(=O)Oc1c(C(=O)c2ccc3c(c2C)C(C)(C)CS3(=O)=O)cnn1C	5 (0)

Note Herbicidal Efficacy EE = Green foxtail for the compound shown: Cc1ccc(S(=O)(=O)Oc2c(C(=O)c3ccc4c(c3C)C(C)(C)CS4(=O)=O)cnn2C)cc1
5 (0)

For the compound Cc1c(C(=O)c2cnn(C)c2O)ccc2c1C(C)(C)CS2(=O)=O , report Herbicidal Efficacy EE = Green foxtail.
5 (0)

Give the reported Herbicidal Efficacy EE = Green foxtail for this compound. Cc1c(C(=O)c2cnn(C)c2OCC(=O)c2ccccc2)ccc2c1C(C)(C)CS2(=O)=O
5 (0)

Answer with the recorded Herbicidal Efficacy EE = Green foxtail of Cc1c(C(=O)c2cnn(C)c2OC(=O)C2CCCCC2)ccc2c1C(C)(C)CS2(=O)=O only.
5 (0)

Identify measured Herbicidal Efficacy EE = Green foxtail associated with Cc1c(C(=O)c2cnn(C)c2OS(C)(=O)=O)ccc2c1C(C)(C)CS2(=O)=O
5 (0)

Name the recorded Herbicidal Efficacy EE = Green foxtail of the item CCCS(=O)(=O)Oc1c(C(=O)c2cc(C)c3c(c2C)C(C)(C)CS3(=O)=O)cnn1CC [Compound (A), reference compound] in your answer.
1 (61-80)

Input CCN(CC)CC.Cc1c(C(=O)c2cnn(C)c2O)ccc2c1C(C)(C)CS2(=O)=O , output reported Herbicidal Efficacy EE = Green foxtail.
5 (0)

Tell me its Herbicidal Efficacy EE = Green foxtail given CCC(=O)Oc1c(C(=O)c2ccc3c(c2C)C(C)(C)CS3(=O)=O)cnn1C as the entry.
5 (0)

Identify Herbicidal Efficacy EE = Green foxtail associated with the compound Cc1c(C(=O)c2cnn(C)c2O)ccc2c1C(C)(C)CS2(=O)=O.[Na]
4 (1-20)

Return Herbicidal Efficacy EE = Green foxtail (reported value) for this compound: Cc1c(C(=O)c2cnn(C)c2OC(=O)c2ccccc2)ccc2c1C(C)(C)CS2(=O)=O
5 (0)
